// provenance: paper PMC2756588

Target: Sho1, P40073
Sequence (P40073 287-367): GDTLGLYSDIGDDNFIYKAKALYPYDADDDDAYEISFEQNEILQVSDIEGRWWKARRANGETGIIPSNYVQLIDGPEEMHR
Assay: SPOT array
Details: median of control spots 1148
I'd appreciate it if you marked entries yes (1) when SPOT intensity is lower than 40 and no (0) when it is not.

INSERT INTO results (binder, label_value) VALUES
  ('GDHPKGPPPPPPPPD', 'yes (1)'),
  ('AAAPKHAPPPVPNET', 'yes (1)'),
  ('NFKRLLPRDPSEKSS', 'no (0)'),
  ('LSKRLPLRFPEHTSS', 'yes (1)'),
  ('ANNQGPPNLPARDKS', 'yes (1)'),
  ('RVTRKRPREPKSTND', 'no (0)'),
  ('NNFYRPLLRSVLVLL', 'yes (1)'),
  ('RPPRPPPKPLHLRTE', 'no (0)'),
  ('LLIRWLILMPLVGSR', 'no (0)'),
  ('SSTPTTPERPKRKSG', 'yes (1)'),
  ('EEEEEHPPLPARRKS', 'yes (1)'),
  ('LKRITSPPLPPRADS', 'no (0)'),
  ('RSRRSSFAYPQQVAI', 'no (0)'),
  ('EAEEAAPQLPSRSSA', 'yes (1)'),
  ('GKLKHIPRRPYEIER', 'yes (1)'),
  ('ALKQKKIPPPFKPHL', 'yes (1)'),
  ('EREKALPPIPFTTTL', 'no (0)'),
  ('VYTRTAFQIPGDDKI', 'yes (1)'),
  ('PELAPKREAPKPPAN', 'yes (1)'),
  ('SKAKRPKFLLDLQIK', 'no (0)'),
  ('RNNRPVPPPPPMRTT', 'yes (1)'),
  ('IAPIPMPKPNPTHIS', 'yes (1)'),
  ('FPGKKSPRLPHRNKK', 'no (0)'),
  ('GATNNAPTLPKRKNP', 'yes (1)'),
  ('SNRRPVPRRPSQPLN', 'yes (1)'),
  ('SPLGAPPPPPHKDHL', 'yes (1)'),
  ('KKAPPPVVKPKPRNF', 'yes (1)');
